- target.system: T1, PDZD2_2, O15018
- T1 sequence (O15018 329-429, limits assumed, looked up): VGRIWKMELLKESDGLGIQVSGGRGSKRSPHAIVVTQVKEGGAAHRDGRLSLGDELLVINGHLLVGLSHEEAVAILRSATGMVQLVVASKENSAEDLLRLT
- assay.summary: holdup assay
- Design: key: below the threshold = too weak to quantify, mostly under pKd 3.1 to 4
- assay.setup: plain residues with an end cap or a label only (N-terminal biotin on a linker: ado-ado)
Some binders, each annotated with its measured pKd.
API doc: respond with a numeric literal and nothing else, no unit.

Use the examples below as a reference point.
[
  {
    "binder": "SQPLLVHDDV [KIT, P10721]",
    "quantitative.readout": 3.99
  },
  {
    "binder": "IQISELETNV [SLC1A7, O00341]",
    "quantitative.readout": 4.97
  }
]

Let us move to another entry and its pKd.
pKd lookup needed for KSRPENGTVC [TMEM178B, H3BS89] , thanks.
3.59
